System: SN12C renal
Test: NCI tumour cell line growth inhibition, 48 h
quantity: TGI

Value of TGI reported for the compound NC(N)=N/N=C/c1c(-c2cccs2)nc2n1CCS2 is 32.4 µM

Value of TGI reported for the compound CC1=C(c2ccccc2)CON(c2ccccc2)C1 is > 100 µM

Value of TGI reported for the compound CC(C)=CC1(C)/C(=N\O)C(C)(CC(C)C)C(=O)N1O (stereo not drawn) is > 100 µM

Others:
Value of TGI reported for the compound O=C(CC(=O)c1cccc2ccccc12)C(=O)Nc1nccs1 is > 100 µM

Value of TGI reported for the compound NC1=C(/C(N)=N/O)C(c2ccccc2)c2ccc3ccccc3c2O1 (stereo not drawn) is 31 µM

Value of TGI reported for the compound O=c1c2cc(Br)ccc2n(C2OC(CO)C(O)C(O)C2O)c(=S)n1-c1ccccc1 (stereo not drawn) is > 100 µM

Value of TGI reported for the compound Nc1nc(Cl)cc(NCC2(CO)CC=CC2)n1 is > 100 µM

Value of TGI reported for the compound O=c1oc2ccccc2c(O)c1Cc1ccccc1Cc1c(O)c2ccccc2oc1=O is > 100 µM

----------
Listing: TGI of selected compounds
Tested on: HCT-15 colon
Assay: NCI tumour cell line growth inhibition, 48 h

These solved cases illustrate the format of a correct answer.
Value of TGI reported for the compound COC(=O)C1=C(C(=O)OC)N(c2ccncc2)C(c2ccco2)=CC1c1ccccc1[N+](=O)[O-] (centres undefined) is 5.58 µM

Value of TGI reported for the compound C#C[C@@H](OC(=O)c1ccc([N+](=O)[O-])cc1)[C@@H]1C[C@H]2O[C@@H]([C@H](C/C=C/CC)OC(=O)c3ccc([N+](=O)[O-])cc3)C[C@H]2O1 is > 100 µM

Value of TGI reported for the compound CC(O)/C=C/C1OC(=O)CC1Nc1ccc(C=O)cc1 (centres undefined) is > 100 µM

Value of TGI reported for the compound CN(C)c1ccc(C2=C([O-])c3cc(-[n+]4ccccc4)ccc3C2=O)cc1 is > 100 µM

Value of TGI reported for the compound COC(=O)C[C@@H]1CC=CC(=O)/C1=C(O)/C=C/c1ccccc1 is 1.15 µM

Value of TGI reported for the compound C=CC(=O)OCCCS(=O)(=O)[O-].C=CC(=O)OCCCS(=O)(=O)[O-].NC1CCCCC1N.[Pt+4] is > 25 µM

Others:
Value of TGI reported for the compound O=C(O)c1ccc(C2=Nc3cccc4cccc(c34)N2)cc1 is > 100 µM

Value of TGI reported for the compound CCOC(=O)/C=C(\C(=O)OCC)n1cc(C)c(=O)n(Cc2cn(COCCOC(C)=O)nn2)c1=O is 55.4 µM

Value of TGI reported for the compound CC(NC(=O)c1ccc(OP(=O)(OCc2ccc([N+](=O)[O-])o2)N(C)CCCCCl)cc1)c1ccc(OCC2CCCCC2)c(C(N)=O)c1 (centres undefined) is 8.14 µM

----------
Test system: T-47D breast
Test: NCI tumour cell line growth inhibition, 48 h
Listing: TGI of selected compounds
# number only, unit µM dropped from output

These solved cases illustrate the format of a correct answer.
Value of TGI reported for the compound O=C(Oc1c(Cl)c(Cl)c(Cl)c(Cl)c1Cl)C1CCCN1C(=O)OCc1ccccc1 (stereo not given) is 11.3

Value of TGI reported for the compound COc1ncc(-c2ccc3ncnc(Nc4cccc(Cl)c4)c3c2)cc1NS(C)(=O)=O is 1.33

Value of TGI reported for the compound CCN1Cc2c(/C=C/c3ccccc3)nc3ccc(OC)cc3c2N(c2cccc(Cl)c2)C1 is 4.18

Others:
Value of TGI reported for the compound CN(CCN1C(=O)c2cccc3cccc(c23)C1=O)CCN1C(=O)c2cccc3cccc(c23)C1=O is 10.2
